- ASSAY_PROTOCOL: Therapeutic index, ratio of CC50 for human MT4 cells to EC50 for HIV-1 NL4-3 infected in human MT4 cells
- Format: toxicity, cell-based
- ASSAY_CONDITIONS: read-out: Ratio CC50/EC50
REPORTED_ENDPOINT: selectivity ratio
Give the figure only, with no unit attached.

// below: answered compounds
>>> numeric_readout("COC(c1nc(SC(C)C)[nH]c(=O)c1C)c1c(Cl)cccc1Cl (stereo unspecified)")
12900
>>> numeric_readout("CCC(C)Sc1nc(C(OC)c2c(Cl)cccc2Cl)c(C)c(=O)[nH]1 (stereo unspecified)")
36400
>>> numeric_readout("COC(c1nc(NC(C)C)[nH]c(=O)c1C)c1c(Cl)cccc1Cl (stereo unspecified)")
651
>>> numeric_readout("CCCN(C)c1nc([C@H](OC)c2c(Cl)cccc2Cl)c(C)c(=O)[nH]1")
162000

Field: next compound
// recorded selectivity ratio for CCCNc1nc(C(OC)c2c(Cl)cccc2Cl)c(C)c(=O)[nH]1 (stereo unspecified) : 3280
